- MEASURED_ON: UniProtKB O75469
- Sequence (O75469 whole entry): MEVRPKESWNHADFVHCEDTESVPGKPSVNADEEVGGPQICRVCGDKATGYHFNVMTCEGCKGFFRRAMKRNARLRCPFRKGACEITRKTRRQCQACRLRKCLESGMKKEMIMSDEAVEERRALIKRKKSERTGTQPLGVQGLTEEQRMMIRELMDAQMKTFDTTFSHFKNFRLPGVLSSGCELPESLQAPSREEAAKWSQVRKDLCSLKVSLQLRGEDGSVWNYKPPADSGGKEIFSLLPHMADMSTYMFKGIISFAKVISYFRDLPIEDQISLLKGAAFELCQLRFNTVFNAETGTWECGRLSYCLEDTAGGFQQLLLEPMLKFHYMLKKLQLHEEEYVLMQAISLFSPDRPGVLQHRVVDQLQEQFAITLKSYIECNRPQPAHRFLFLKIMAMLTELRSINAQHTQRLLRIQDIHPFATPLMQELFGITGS
- RUN_DESCRIPTION: Activation of human PXR ligand binding domain incubated for 1 hr by TR-FRET assay
PROPERTY_MEASURED: EC50 (µM)

{"COMPOUND_STRING": "C[C@H](c1cc(F)cc(F)c1)N(C(=O)c1ccccc1O)[C@@H](C(N)=O)c1ccccc1", "SCALE_UNIT": "µM", "EC50": 12}

(a) NC(=O)[C@@H](c1ccccc1)N(C(=O)c1cccnc1)[C@@H]1CCc2c(F)cc(F)cc21
(b) NC(=O)[C@@H](c1ccccc1)N(C(=O)c1cccnc1)[C@@H]1CCc2c(F)cc(Cl)cc21
(c) C[C@H](c1cc(F)cc(F)c1)N(C(=O)c1ccccc1)[C@@H](C(N)=O)c1ccccc1
Sort the molecules on EC50; start with the lowest figure. Form entry: labels listed in requested order. c, a, b
